experimental endpoint: melting point

- Cc1nc(C#Cc2cncc(CO)c2)cs1: 98 to 99 °C
- COc1cc(Nc2nccc(-c3ccc(N(C)CCN(C)C)nc3)n2)cc(OC)c1OC: 97 to 98 °C
- CCc1cc(C(=O)c2ccccc2Cl)c(-n2c(C)nnc2CNC(=O)Cc2ccccc2)s1: 153 to 155 °C
- CCOC(=O)C(C#N)=CNc1ccc(CC)cn1: 155 to 156 °C
- Clc1cccc(CNc2ncnc3nc[nH]c23)c1: 252 °C
- COc1cc(N)cc(N)c1: 79 to 80 °C
- Cn1cc(O)c(=O)c2cccc(F)c21: 248 °C
- CC(=O)OC1CSC(Oc2ccc(-c3ccsc3)nc2)C(OC(C)=O)C1OC(C)=O (stereo not drawn): 158 °C
- O=C(Nc1ccc(S(=O)(=O)F)cc1)c1cc(Cl)ccc1[N+](=O)[O-]: 182 to 184 °C
- CC(C)(C)c1ccc(C(O)CCCn2ccnc2)cc1 (stereo not drawn): 205 to 207 °C
- O=C(c1ccc([N+](=O)[O-])cc1)c1c(Cl)cc(O)cc1Cl: 118 to 120 °C
- Nc1cccc(-c2cc3[nH]c4ccc(O)cc4c3c3c2C(=O)NC3=O)c1: 279 to 284 °C
- O=C(C=CC=C(c1ccc(Cl)cc1)c1ccc(Cl)cc1)Nc1ccc(C(=O)O)cc1: 273 to 276 °C
- OC(c1ccc(OCc2ccccc2)cc1)C(F)(F)F (stereo not drawn): 115 to 117 °C
- O=C1CC(c2cccc(OCc3ccccc3)c2)=Nc2ccc(N3CCOCC3)cc21: 283 to 285 °C
- CC1(C)OCCC2CC(=O)N21 (stereo not drawn): 60 to 61 °C
- CC(C)[C@H](NC(=O)Cc1cc(F)cc(F)c1)C(=O)N[C@@H]1C(=O)Nc2ccccc2S[C@@H]1c1ccccc1: 110 to 115 °C
- CC(NC(=O)CCCl)c1ccc(Cl)cc1 (stereo not drawn): 86 to 91 °C
- COc1cc(C#N)c(N=C(C)N(C)C)cc1OC: 94 to 96 °C
- O=C1CCC(O)(c2nc3ccccc3s2)CC1: 134 °C
- OC1CSC(Oc2ccc(-c3ccncc3)nc2F)C(O)C1O (stereo not drawn): 196 °C
- O=C(O)c1ccc2c(c1)Sc1ccc([N+](=O)[O-])cc1C=C2: 304 to 306 °C
- CNC(=O)CC1CSc2c(C(=O)OC(C)C)c(C)cn21 (stereo not drawn): 108 to 109 °C
- Cn1c(COc2cccc(N)c2)nc2ccccc21: 149 to 153 °C
- CCOC(=O)c1[nH]c2cc(Cl)c(Cl)cc2c1-c1ccccc1: 201 to 202 °C
- CCOC(=O)c1ccccc1-n1c(CCl)nc2ccc(Cl)cc2c1=O: 195 to 197 °C
- CSCC(C)(C)NC(=O)c1c(I)cccc1Oc1ncc(C(F)(F)F)cc1Cl: 83 to 85 °C
- COc1ccc(F)c2c1CCC(C=O)C2=O (stereo not drawn): 66 to 68 °C
- CN(C)c1ccc2ccc(=O)oc2c1: 161 °C
- CCOC(=O)c1c(-c2cccc(F)c2)c(Cl)n2c1CNCC2: 96 to 98 °C
- O=C(NC1CCC(O)CC1)NC12CC3CC(CC(C3)C1)C2 (stereo not drawn): 205 °C
- CCOC(=O)c1cnc2ccc(Cl)cc2c1-c1ccccc1: 123 to 124 °C
- Cc1cc(S(C)(=O)=O)ccc1-n1nc(C(F)(F)F)cc1-c1ccc(-c2ccco2)cc1: 205 °C
- COc1cc2nccc(CC(=O)O)c2cc1OC: > 250 °C
- CCCc1cc2c(s1)[C@@H](O)[C@H]1C[C@]2(O)C(=O)O1: 120 to 125 °C
- C[Si](C)(C)C1=C(c2ccccc2)C(c2ccccc2)=C([Si](C)(C)C)[Si]1(C)C: 100 °C
- Cn1nc(Cl)c2c(=O)n3c(nc21)SCC3: 222 °C
- C[Si](C)(C)CCCCOC(=O)CSc1cc(Oc2ccc(C(F)(F)F)cc2Cl)ccc1[N+](=O)[O-]: 78 to 81 °C

====

experimental endpoint: melting point

* CCOC(=O)C(=O)Nc1cccc(C#N)c1 | 149 to 150 °C
* O=C(O)COc1ccc(C(=O)O)c(Cl)c1Cl | > 250 °C
* CCOC(CCOc1cc(Cc2cnc(N)nc2N)cc(OC)c1OC)OCC | 105 to 106 °C
* Cc1cccc(CNc2c(NC(C)(C)C)c(=O)c2=O)c1C | 237 to 239 °C
* CC(=O)Oc1cc(C(=O)Cc2ccccc2)cc([N+](=O)[O-])c1OC(C)=O | 94 to 95 °C
* Cc1cc(Nc2ccccc2C(=O)N2CCCCC2)ccn1 | 93 to 95 °C
* CS(=O)(=O)c1ccc(-c2ccc(N=[N+]=[N-])nc2-c2ccc(F)cc2)cc1 | 229 °C
* CC(C)(C)OC(=O)NC1CCCC1CO (centres undefined) | 107 to 108 °C
* Cc1cccc(C)c1NC(=O)c1ccc(S(C)(=O)=O)cc1 | 164 to 166 °C
* CCOC(=O)c1cc(OC(C)=O)c2cc(OC)ccc2c1 | 104 °C
* CCOC(=O)c1cc(C#N)c(=O)[nH]c1C | 208 to 210 °C
* C=CCn1nc(-c2ccc(OC)cc2)c(-c2ccc(OC)cc2)cc1=O | 114 to 115 °C
* CCOC(=O)/C=C(C)/C=C/C=C(C)/C=C/c1c(C)oc(C)c1C | 89 to 91 °C
* CCOCC(=O)NC1CCN(C[C@@]23C[C@@H](c4ccccc42)c2ccc(Cl)cc23)CC1 | 68 to 70 °C
* C=CCOc1cc(-n2ncc(C(F)(F)F)c(C)c2=O)c(F)cc1Cl | 79.8 °C
* O=C1CCCN1c1c([N+](=O)[O-])cc(C(F)(F)F)c(Cl)c1[N+](=O)[O-] | 121 to 122 °C
* CCCCCCCNC(=O)Nc1ccccc1C(=O)NCCC(c1ccccc1)c1ccccc1 | 118 °C
* Cc1ccc(SC(CCCCCc2ccc(Cl)cc2)C(=O)O)cc1 (centres undefined) | 58 to 61 °C
* O=c1c(OC(F)F)cn(-c2cccc(C(F)(F)F)c2)nc1-c1ccnn1-c1ccccc1 | 132 to 134 °C
* C[C@H](C1CCCCC1)N1C(=O)c2c(F)c(F)c(F)c(F)c2C1=O | 147 to 148 °C
* CN1Cc2ccc(NC(=O)N[C@@H]3c4cc(C#N)ccc4OC(C)(C)[C@H]3O)cc2C1 | 220 to 222 °C
* COCC(C#N)=Cc1cc(OC)c(OC)c(OC)c1 | 79 to 81 °C
* CNC(=O)Nc1ccc(OCCCN2CCC(C(O)(c3ccc(F)cc3)c3ccc(F)cc3)CC2)cc1 | 177 to 178 °C
* N#Cc1cccnc1N1CCN(Cc2nc3ccccc3[nH]2)CC1 | 208 to 210 °C
* O=C1NCC(c2ccccc2)CCC1Br (centres undefined) | 218 to 220 °C
* CNc1cc(CC2(C)CC3C(=C(C)C(C)=C(N)C3C)O2)ccc1-c1ccn[nH]1 (centres undefined) | 113 to 117 °C
* CCC1(CCCCN2CCN(c3ccc(Cl)cc3)CC2)C(=O)Nc2cc(F)ccc21 (centres undefined) | 145 to 147 °C
* Cc1cccc(C(=O)Nc2c[nH]nc2C(=O)NCC(O)Cc2ccccc2)n1 (centres undefined) | 184 to 185 °C
* COC(=O)c1cc(O)ccc1OC | 110 to 112 °C

====

experimental endpoint: melting point

- O=S(=O)(Nc1ccccc1O)c1ccc(Cl)cc1: 82 °C
- CC(=O)Oc1cc(S(=O)(=O)Oc2ccc(C(=O)c3c(Cc4ccccc4)oc(C)c3C)cc2C2CCCC2)ccc1C(=O)O: 55 to 90 °C
- CN(C)c1nc(Cl)nc(-n2ccnc2)n1: 88 to 92 °C

====

Recorded melting point for the following molecules
experimental endpoint: melting point

* CON=C(C)c1cccc(NC(=O)NCC(=O)N(C)c2ccc(Cl)c(COc3cccc4ccc(C)nc34)c2Cl)c1 | 218 to 224 °C
* CCc1c(Sc2cc(C)cc(C)c2)[nH]c(=O)[nH]c1=O | 224 to 225 °C
* Cc1cccc(C)c1-c1cc2cnc(N)nc2n(C)c1=N | 197 to 198 °C
* Cc1noc(C)c1C(=O)Nc1ccc(-n2nc(C(F)(F)F)cc2C(F)(F)F)c(Cl)c1 | 64 to 65 °C
* COc1nc(NN)c2c(OC)c(OC)cc(Cl)c2n1 | 166 to 168 °C
* CCCC(C)(COS(N)(=O)=O)COS(N)(=O)=O | 92 to 94 °C
* CCOC(=O)/C=C/c1cn(Cc2ccc(OCc3csc(-c4ccccc4)n3)cc2)nc1-c1cccs1 | 104 to 105 °C
* CC(C)c1nn(-c2ccc(C(F)(F)F)cn2)cc1CCCCOc1cc(CCC(=O)O)n(C)n1 | 113 to 114 °C
* CC(C)(C)OC(=O)c1ccc(CN(CCc2ccccc2)C(=O)OC(C)(C)C)c(N)c1 | 105 to 106 °C
* COc1nc2cc(C)c(C)c(N)c2nc1OC | 166 to 167 °C
* COc1nc(NC(=N)SC)nc(OC)n1 | 94 to 100 °C
* COc1nc(C)nc(NC(=O)NS(=O)(=O)c2cccnc2Oc2ccccc2)n1 | 176 to 178 °C
* CCCc1nc2c(N)nc(C)c(C)c2n1CCCCCS(=O)(=O)c1ccc(Cl)cc1 | 147 to 149 °C
* COc1ccc(-c2cccc(-c3nc(C(C)C)[nH]c3-c3cccc(C)n3)c2)cn1 | 72 to 74 °C
* Cc1ccc(C(=O)OCC2OC(n3cc(C#C[Si](C)(C)C)c(=O)[nH]c3=O)CC2F)cc1 (configuration not stated) | 130 °C
* COC(=O)c1ccccc1S(=O)(=O)NC(=O)Nc1nc(C)cc(CO)n1 | 140 to 141 °C
* NCCc1cccc(N2C(=O)N(c3ccc(Cl)cc3Cl)Cc3cnc(Nc4ccccc4)nc32)c1 | 131 to 135 °C
* CCCCNC(=O)N(N)CCCC | 34 to 36 °C
* Cc1ccc(-c2nc(C)c(-c3ccnc(Nc4ccc(N5CCOCC5)cc4)n3)s2)c(C)c1 | 191 to 192 °C
* CC(=O)SCC(Cc1ccccc1)C(=O)Nc1ccc(N(C)C)c(C(=O)O)c1 (configuration not stated) | 168 to 169 °C
* COc1ccc(-c2cc(C(N)(C(F)(F)F)C(F)(F)F)sc2-c2ccc(OC)cc2)cc1 | 87 to 90 °C
* COc1ccc(-c2nc(-c3ccc(Cl)c(Cl)c3)ncc2C(=O)N2CCOCC2)cc1OC | 181 °C
* CCCCOCCOc1ccc(-c2ccc(N(C)CCC)c(C=CC(=O)O)c2)cc1 | 95 to 97 °C
* N#CC1(c2ccncc2)CCCCC1 | 79 °C
* O[C@@H]1CN(Cc2ccccc2)C[C@H]1Oc1ccc(OCc2ccccc2)cc1 (relative stereo) | 98 to 100 °C
* C#CCNC(=O)C=C(C)N | 137 to 138 °C
* N#CC1(SCc2ccccc2)C2CC3CC(C2)CC1C3 (configuration not stated) | 73 to 75 °C
* COC(=O)c1ccc2c(c1)C=CC(=O)CO2 | 89 to 93 °C
* COCc1nc2c(N)nc3cc(CCCNS(C)(=O)=O)ccc3c2n1CC(C)(C)O | 205 to 207 °C
* CN(N)c1cnn(-c2ccccc2)c(=O)c1Cl | 128 to 130 °C
* CCCCc1cn(Cc2ccc(-c3ccccc3C(=O)O)cc2)c2c(c1=O)CC(C)CC2 (configuration not stated) | 255 °C
* CCCCSc1cc(C(=O)OCC)cc(S(N)(=O)=O)c1Cc1ccccc1 | 120 to 122 °C
